- subjectOfTest: Glucocorticoid receptor (Homo sapiens)
- Sequence (P04150 whole entry): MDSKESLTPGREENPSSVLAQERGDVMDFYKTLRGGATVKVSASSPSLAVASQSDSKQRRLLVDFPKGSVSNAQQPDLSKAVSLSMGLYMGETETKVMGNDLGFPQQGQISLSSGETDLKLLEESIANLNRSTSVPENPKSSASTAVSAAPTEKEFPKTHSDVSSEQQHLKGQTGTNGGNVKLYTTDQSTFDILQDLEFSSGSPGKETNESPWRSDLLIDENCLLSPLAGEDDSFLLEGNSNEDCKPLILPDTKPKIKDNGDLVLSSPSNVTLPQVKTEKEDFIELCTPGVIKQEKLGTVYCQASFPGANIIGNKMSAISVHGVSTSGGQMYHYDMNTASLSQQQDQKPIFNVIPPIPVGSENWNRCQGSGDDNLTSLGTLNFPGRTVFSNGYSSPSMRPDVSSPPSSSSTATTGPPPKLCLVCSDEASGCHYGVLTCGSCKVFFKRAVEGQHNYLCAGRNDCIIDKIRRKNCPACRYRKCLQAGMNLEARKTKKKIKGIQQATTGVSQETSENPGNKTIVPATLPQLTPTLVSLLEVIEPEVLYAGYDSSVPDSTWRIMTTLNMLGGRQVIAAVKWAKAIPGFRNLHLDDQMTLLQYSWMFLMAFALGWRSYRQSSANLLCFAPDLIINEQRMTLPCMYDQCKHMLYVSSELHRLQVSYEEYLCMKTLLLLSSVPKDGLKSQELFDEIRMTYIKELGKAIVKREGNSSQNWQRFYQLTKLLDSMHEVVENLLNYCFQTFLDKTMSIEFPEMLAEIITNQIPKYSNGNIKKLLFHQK
metric: Ki (nM)

compound	Ki, nM
CC(C)(C(=O)Nc1nncs1)C(c1ccccc1)c1ccc2c(-c3cccc(C#N)c3)ncn2c1 (stereo not drawn)	4
CC(C)(C(=O)Nc1nncs1)C(c1ccccc1)c1ccc2c(-c3cccc(CO)c3)ncn2c1 (stereo not drawn)	5
CC(C)(C(=O)Nc1nccs1)C(c1ccccc1)c1ccc2c(-c3cccc(C#N)c3)ncn2c1 (stereo not drawn)	4
CC(C)(C(=O)Nc1nncs1)C(c1ccccc1)c1ccn2c(-c3ccccc3)ncc2c1 (single isomer, unassigned; enantiomer 1)	5
CC(C)(C(=O)Nc1nccs1)C(c1ccccc1)c1ccc2cnccc2c1 (stereo not drawn)	15

I. CC(C)(C(=O)Nc1nccs1)C(c1ccccc1)c1ccc2c(-c3ccc(F)c(Cl)c3)ncn2c1 (stereo not drawn)
II. CC(C)(C(=O)Nc1nccs1)C(c1ccccc1)c1ccc2c(-c3ccc(F)cc3)ncn2c1 (single isomer, unassigned; enantiomer 1)
I would appreciate it if you could say which entry, I or II , has the lower Ki value. State the label of the item chosen. II

a. CC(C)(C(=O)Nc1nncs1)C(c1ccccc1)c1ccn2c(-c3ccccc3)ncc2c1 (single isomer, unassigned; enantiomer 2)
b. CC(C)(C(=O)Nc1nccs1)C(c1ccccc1)c1ccc2ncccc2c1 (stereo not drawn)
I would appreciate it if you could say which entry, a or b , has the lower Ki value. State the label of the item chosen. a

1. CC(C)(C(=O)Nc1nccs1)C(c1ccccc1)c1ccc2c(-c3ccc(F)cc3F)ncn2c1 (stereo not drawn)
2. CC(C)(C(=O)Nc1nncs1)C(c1ccccc1)c1cc(-c2ccc(F)cc2)c2ncccc2c1 (stereo not drawn)
3. CC(C)(C(=O)Nc1nccs1)C(c1ccccc1)c1ccc2c(-c3ccc(F)cc3)ncn2c1 (single isomer, unassigned; enantiomer 2)
List the 3 entries from lowest Ki to highest Ki value. Use the labels to give the ranking in the order requested. 3, 1, 2

Recorded values, source ChEMBL document CHEMBL2424642.
